# protein stability index values compiled below
B1: KCNA4 (parent)
chain: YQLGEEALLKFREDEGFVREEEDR

- Variants of: B1
- Protocol text: protein stability index of a GFP-peptide fusion (GPS, HEK-293T) (PSI 1-6); higher = more stable;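 note: lentivirally expressed fusions sorted by FACS into six bins by GFP to DsRed ratio, PSI derived from sequencing read proportions per bin multiplied by bin number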
- Experimental parameters: c terminus: a fixed tail appended

Variant notation: G16D
protein stability index: 5.21

Variant notation: K10N
protein stability index: 5.07

Variant notation: E20L
protein stability index: 3.9

Variant notation: R24V
protein stability index: 4.73

Variant notation: R24W
protein stability index: 4.53

Variant notation: A7F
protein stability index: 4.43

Variant notation: F11T
protein stability index: 5.27

Variant notation: A7C
protein stability index: 4.89

Variant notation: Q2C
protein stability index: 4.91

Variant notation: F17W
protein stability index: 4.59

Variant notation: E21M
protein stability index: 4.21

Variant notation: E13N
protein stability index: 4.5

Variant notation: D14F
protein stability index: 3.78

Variant notation: F11P
protein stability index: 5.57

Variant notation: D14M
protein stability index: 4.27

Variant notation: G16Y
protein stability index: 4.04

Variant notation: L8H
protein stability index: 5.62

Variant notation: G4W
protein stability index: 4.4

Variant notation: F11H
protein stability index: 5.21

Variant notation: Q2H
protein stability index: 2.94

Variant notation: E15Q
protein stability index: 4.4

Variant notation: Q2N
protein stability index: 5.23

Variant notation: L3D
protein stability index: 5.85

Variant notation: E6Q
protein stability index: 4.23

Variant notation: E13K
protein stability index: 4

Variant notation: G4F
protein stability index: 4.28

Variant notation: E22G
protein stability index: 4.23

Variant notation: E20D
protein stability index: 4.38

Variant notation: R12A
protein stability index: 4.41

Variant notation: F17N
protein stability index: 4.68

Variant notation: R19H
protein stability index: 4.77

Variant notation: L9D
protein stability index: 5.87

Variant notation: G4S
protein stability index: 3.81

Variant notation: D14E
protein stability index: 4.18

Variant notation: Q2V
protein stability index: 4.21

Variant notation: V18W
protein stability index: 3.94

Variant notation: E15N
protein stability index: 4.42

Variant notation: V18L
protein stability index: 4.44

Variant notation: Y1Q
protein stability index: 5.41

Variant notation: Q2F
protein stability index: 4.15

Variant notation: K10E
protein stability index: 5.37

Variant notation: Y1I
protein stability index: 5.3

Variant notation: D23S
protein stability index: 4.62

Variant notation: L9M
protein stability index: 4.84

Variant notation: L8C
protein stability index: 4.98

Variant notation: E6M
protein stability index: 3.99

Variant notation: L3R
protein stability index: 4.75

Variant notation: E20Q
protein stability index: 4.44

Variant notation: E5I
protein stability index: 3.55

Variant notation: R19S
protein stability index: 4.22

Variant notation: E13C
protein stability index: 2.42

Variant notation: G16T
protein stability index: 4.58

Variant notation: G16K
protein stability index: 3.93

Variant notation: E21G
protein stability index: 4.43

Variant notation: V18A
protein stability index: 4.16

Variant notation: E6C
protein stability index: 3.51

Variant notation: Q2E
protein stability index: 5.37

Variant notation: E22L
protein stability index: 3.99

Variant notation: A7L
protein stability index: 4.8

Variant notation: G16M
protein stability index: 4.48

Variant notation: E22Q
protein stability index: 4.25

Variant notation: E6A
protein stability index: 4.31

Variant notation: E5R
protein stability index: 3.48

Variant notation: E20P
protein stability index: 4.3

Variant notation: L3Q
protein stability index: 5.62

Variant notation: R24G
protein stability index: 4.79

Variant notation: R24Y
protein stability index: 4.42

Variant notation: E21Q
protein stability index: 4.21

Variant notation: E21H
protein stability index: 4.18

Variant notation: Y1L
protein stability index: 4.96

Variant notation: R12W
protein stability index: 2.34

Variant notation: F17D
protein stability index: 4.81

Variant notation: E5Y
protein stability index: 3.21

Variant notation: A7R
protein stability index: 4.62

Variant notation: R12M
protein stability index: 4.06

Variant notation: F17C
protein stability index: 4.88

Variant notation: G4A
protein stability index: 5.24

Variant notation: E20V
protein stability index: 4.14

Variant notation: E15S
protein stability index: 4.09

Variant notation: E13F
protein stability index: 3.63

Variant notation: E20G
protein stability index: 3.93

Variant notation: A7E
protein stability index: 4.38

Variant notation: L8V
protein stability index: 5.58

Variant notation: R19I
protein stability index: 4.36

Variant notation: D23K
protein stability index: 4.45

Variant notation: E20S
protein stability index: 4.45

Variant notation: V18T
protein stability index: 4.54

Variant notation: D23L
protein stability index: 3.97

Variant notation: L9K
protein stability index: 4.57

Variant notation: L8P
protein stability index: 5.13

Variant notation: D23W
protein stability index: 3.51
